Values were extracted from patent US20250059285A1.

- assayed system: T1, human Gal10-His (human, UniProt Q05315 2-142, limits assumed)
- T1 construct: also called hGal10-His; human Gal10-His tagged; not shown: His tag
- T1 sequence: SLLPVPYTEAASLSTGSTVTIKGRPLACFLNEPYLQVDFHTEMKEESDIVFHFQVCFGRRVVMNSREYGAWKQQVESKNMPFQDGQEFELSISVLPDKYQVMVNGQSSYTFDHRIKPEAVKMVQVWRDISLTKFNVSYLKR
- protocol text: SPR Biacore 3000, purified hFab (2 conc.) on Gal10-His captured by anti-His CM5

- binder: "g7B07_N53A (human Fab) (Fab, V domains shown, VH assembled by inference as for g7B07; Human Fab backbone; also called g7B07_N53A (mean)) VH: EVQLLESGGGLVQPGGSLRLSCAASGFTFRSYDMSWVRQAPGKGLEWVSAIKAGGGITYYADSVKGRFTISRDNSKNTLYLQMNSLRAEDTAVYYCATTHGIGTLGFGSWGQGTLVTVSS VL: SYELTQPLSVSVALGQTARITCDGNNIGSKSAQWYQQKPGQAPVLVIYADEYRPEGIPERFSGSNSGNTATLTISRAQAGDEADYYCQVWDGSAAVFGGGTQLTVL"
  quantity unit: "M⁻¹ s⁻¹"
  kon: 640000
- binder: "g23H09 (Fab) (Fab, V domains shown, same VH/VL) VH: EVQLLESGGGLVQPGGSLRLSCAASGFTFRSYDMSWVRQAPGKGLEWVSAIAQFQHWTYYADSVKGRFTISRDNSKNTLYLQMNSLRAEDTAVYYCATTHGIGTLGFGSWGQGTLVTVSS VL: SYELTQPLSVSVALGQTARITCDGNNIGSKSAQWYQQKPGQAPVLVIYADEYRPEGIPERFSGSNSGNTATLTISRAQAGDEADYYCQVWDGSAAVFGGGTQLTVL"
  quantity unit: "M⁻¹ s⁻¹"
  kon: 650000
- binder: "g7B07 (human Fab) (Fab, V domains shown, Human Fab backbone; their format is not certain; also called g7B07-hFab; germlined 7B07) VH: EVQLLESGGGLVQPGGSLRLSCAASGFTFRSYDMSWVRQAPGKGLEWVSAIKNGGGITYYADSVKGRFTISRDNSKNTLYLQMNSLRAEDTAVYYCATTHGIGTLGFGSWGQGTLVTVSS VL: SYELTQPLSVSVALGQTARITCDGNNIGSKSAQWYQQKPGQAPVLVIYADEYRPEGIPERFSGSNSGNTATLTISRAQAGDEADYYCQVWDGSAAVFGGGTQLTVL"
  quantity unit: "M⁻¹ s⁻¹"
  kon: 420000
